- Test system: DDR1
- condition.summary: concentration: 1 μM, replicates: in singlicate; n = 1
parameter.measured: %Inh (%)
Answer format: numeric, % implied, no suffix.

>>> quantitative_result("COC(=O)c1c(-c2ccccc2)c2cc(C(=O)O)ccc2c(=O)n1Cc1ccccc1")
92.6
>>> quantitative_result("Cl.NC(=O)c1cccc(Nc2nccc(Nc3ccc(Oc4cccc(Cl)c4)c(Cl)c3)n2)c1")
1
>>> quantitative_result("CN(C)CCN(C)C(=O)c1cc(-c2ccncc2)c(-c2ccc(Cl)c(O)c2)o1.Cl.Cl")
34

Task item: API: value(readout=%Inh, system=DDR1) for record COc1ccc(CNC(=O)NC2CCN(c3ccnc(Nc4cc(OC)c(OC)c(OC)c4)n3)C2)cc1 (stereo not drawn)
Reply: 1

Task item: API: value(readout=%Inh, system=DDR1) for record `Clc1cc(Cl)cc(Nc2ccnc(Nc3cc(Cl)cc(Cl)c3)n2)c1`
Reply: 6

----------
- System: DDR1
- condition.summary: concentration: 1 μM, replicates: in singlicate; n = 1
parameter.measured: %Inh (%)
Answer format: numeric, % implied, no suffix.

>>> quantitative_result("COc1cc2nccc(Nc3ccc(NC(=O)c4ccc(C)cc4)c(O)c3)c2cc1OC.Cl [GW440132]")
0
>>> quantitative_result("CN1C(=O)C(Nc2ccc(Cl)c(C(=O)O)c2)=C(c2ccc(Cl)cc2)C1=O [SB-404290]")
0
>>> quantitative_result("Cc1cccc(-c2nc(Nc3ccncc3)c3ccccc3n2)n1 [GW855857]")
30
>>> quantitative_result("COc1cccc(-c2cc(-c3c[nH]nc3-c3ccccn3)ccn2)c1 [GW680338]")
3

Task item: API: value(readout=%Inh, system=DDR1) for record Cc1csc(-c2nc(Nc3ccncc3)c3ccccc3n2)n1 [GW869640]
Reply: 22

Task item: API: value(readout=%Inh, system=DDR1) for record O=S(=O)(c1ccc(-c2ccnc3[nH]ccc23)cc1)N1CCCC1 [GSK846226]
Reply: 0

Task item: API: value(readout=%Inh, system=DDR1) for record Cc1cccc(-c2cc(Nc3ccncc3)c3ccccc3n2)n1 [GSK223675]
Reply: 9

Task item: API: value(readout=%Inh, system=DDR1) for record Cc1cccc(-c2nc(Nc3ccc4[nH]ncc4c3)c3ccccc3n2)n1 [GW857175]
Reply: 39

Task item: API: value(readout=%Inh, system=DDR1) for record Cc1ccc(-c2cc(-c3c[nH]nc3-c3ccccn3)ccn2)cc1 [GW684088]
Reply: 13

Task item: API: value(readout=%Inh, system=DDR1) for record Cn1cncc1-c1ccc2ncnc(Nc3ccc(OCc4ccccc4)cc3)c2c1 [GW320571]
Reply: 18

Task item: API: value(readout=%Inh, system=DDR1) for record O=C(Nc1n[nH]c2cc(-c3cccc(F)c3F)ccc12)C1CC1 [SB-733894]
Reply: 0

Task item: API: value(readout=%Inh, system=DDR1) for record COc1ccc(Nc2nccc(-c3cccc(NC(=O)c4cc5cc(F)ccc5[nH]4)c3)n2)cc1 [GSK1229782]
Reply: 0

Task item: API: value(readout=%Inh, system=DDR1) for record Nc1ncnc2[nH]c(-c3ccccc3)nc12 [AH5015]
Reply: 0

Task item: API: value(readout=%Inh, system=DDR1) for record CC1=C(C(=O)Nc2cc3cn[nH]c3cc2F)C(c2ccc(C(F)(F)F)cc2)CC(=O)N1 (stereo not shown) [GSK429286]
Reply: 3

Task item: API: value(readout=%Inh, system=DDR1) for record C[C@@H]1CCCCN1c1cc(-c2ccc3c(N)n[nH]c3c2)nc(N)n1 [GSK2258759]
Reply: 0

Task item: API: value(readout=%Inh, system=DDR1) for record `CS(=O)(=O)c1ccc(-c2c(-c3ncn[nH]3)sc(N3CCOCC3)c2C#N)cc1`;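 further: KINOMEscan kinase panel screen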
Reply: 0
